The values you see were collected from patent US20200054723A1.

Measured EC50, listed per entry.
Biological target: T1, recombinant human Siglec-8 extracellular domain (ECD) (human, UniProt Q9NYZ4 17-363)
T1 construct: extracellular domain; also called Siglec-8 ECD; full Siglec-8 ECD
T1 sequence (Q9NYZ4 17-363): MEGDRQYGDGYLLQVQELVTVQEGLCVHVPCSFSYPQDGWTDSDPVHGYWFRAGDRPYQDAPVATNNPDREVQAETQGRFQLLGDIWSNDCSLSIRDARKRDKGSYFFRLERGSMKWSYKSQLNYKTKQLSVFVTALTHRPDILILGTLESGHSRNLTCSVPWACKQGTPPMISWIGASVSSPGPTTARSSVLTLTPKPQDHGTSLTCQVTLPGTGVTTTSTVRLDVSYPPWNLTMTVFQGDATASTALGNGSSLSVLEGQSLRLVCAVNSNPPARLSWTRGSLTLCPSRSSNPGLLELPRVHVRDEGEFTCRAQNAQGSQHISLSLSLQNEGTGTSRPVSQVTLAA
Assay: ELISA, coated Siglec-8 ECD
Answer with a number only, understood to be in nM.

Use the examples below as a reference point.
Binder	Unit of measurement	Reported result
HB2KC (antibody, human IgG1, V domains shown, human IgG1/kappa) VH: QVQLQESGPGLVKPSETLSLTCTVSGFSLTIYGAHWVRQPPGKGLEWLGVIWAGGSTNYNSALMSRLSISKDNSKNQVSLKLSSVTAADTAVYYCARDGSSPYYYSMEYWGQGTLVTVSS VL: EIILTQSPATLSLSPGERATLSCSATSSVSYMHWFQQKPGQAPRLLIYSTSNLASGIPARFSGSGSGTDFTLTISSLEPEDFAVYYCQQRSSYPFTFGPGTKLDIK	nM	0.101
HFKF (antibody, human IgG1, V domains shown, human IgG1/kappa) VH: EVQLVESGGGLVQPGGSLRLSCAASGFSLTIYGAHWVRQAPGKGLEWVSVIWAGGSTNYNSALMSRLTISKDNSKNTVYLQMNSLRAEDTAVYYCARDGSSPYYYSMEYWGQGTTVTVSS VL: EIVLTQSPATLSLSPGERATLSCSATSSVSYMHWFQQKPGQAPRLLIYSTSNLASGIPARFSGSGSGTDYTLTISSLEPEDFAVYYCQQRSSYPFTFGPGTKLDIK	nM	0.118

Item under review: HAKC (antibody, human IgG1, V domains shown, human IgG1/kappa) VH: EVQLVESGGGLVQPGGSLRLSCAASGFSLTIYGAHWVRQAPGKGLEWVSVIWAGGSTNYNSALMSRFTISKDNSKNTVYLQMNSLRAEDTAVYYCARDGSSPYYYSMEYWGQGTTVTVSS VL: EIILTQSPATLSLSPGERATLSCSATSSVSYMHWFQQKPGQAPRLLIYSTSNLASGIPARFSGSGSGTDFTLTISSLEPEDFAVYYCQQRSSYPFTFGPGTKLDIK . Reported EC50?
0.066

One more binder: RHE Triple-KA (antibody, human IgG1, V domains shown, human IgG1/kappa) VH: EVQLVESGGGLVQPGGSLRLSCAASGFSLTIYGAHWVRQAPGKGLEWVGVIWAGGSTNYNSALMSRFTISKDNSKNTVYLQMNSLRAEDTAVYYCARDGSSPYYYGMDVWGQGTTVTVSS VL: EIVLTQSPATLSLSPGERATLSCSATSSVSYMHWFQQKPGQAPRLLIYSTSNLASGIPARFSGSGSGTDFTLTISSLEPEDFAVYYCQQRSSYPFTFGPGTKLDIK
18.6
